Exercise: for every item that follows, state its recorded growth inhibition.
- assay: NCI Yeast Anticancer Drug Screen. Data for the mec2-1 strain (AID 157)
- experimental.context: S. cerevisiae mec2-1 strain, at 50.0 µM (retest, dose inferred, filed as 5.0), stronger effect = higher value
- Description: Growth inhibition of yeast strains with defined genetic alterations is measured as a screen for potential anti-cancer activity. Selected strains with alterations in DNA damage repair or cell cycle control were exposed to compounds and growth inhibition was measured relative to vehicle treated controls. The strain used in this assay is mec2-1
Compounds without any hit were thinned out: in the full panel of roughly 79,000, 15% have a hit. Residues, ends and D or L forms follow the SMILES beside them. *: point of attachment. Fmoc = O=C(OCC1c2ccccc2-c2ccccc21)*; Boc = CC(C)(C)OC(=O)*
The reply should be a number in %, with the unit left off.

Problem: Please give measured growth inhibition of the following entry: "S=C1C(=Nc2ccccc2)N(c2ccccc2)/C(=N\c2ccccn2)N1c1ccccc1"
Solution: 98

Problem: Please give measured growth inhibition of the following entry: CC(C)(C)OC(=O)NCCCCC(NC(=O)C(Cc1c[nH]c2ccccc12)NC(=O)OCC1c2ccccc2-c2ccccc21)C(=O)O (configuration not stated) (Fmoc-Trp-Lys(Boc)-OH; configuration not given here)
Solution: 36

Problem: Please give measured growth inhibition of the following entry: "CSC(=S)N/N=C/c1ccccc1"
Solution: 76

Problem: Please give measured growth inhibition of the following entry: "c1ccc2nc3c(nc2c1)sc1ccccc13"
Solution: 8

Problem: Please give measured growth inhibition of the following entry: CC1(c2ccccc2)O[C@@H]2C[C@H]3[C@@H]4CCC5=CC(=O)C=C[C@]5(C)[C@@]4(F)[C@@H](O)C[C@]3(C)[C@]2(C(=O)CO)O1 (some centres not stated)
Solution: 8

Problem: Please give measured growth inhibition of the following entry: CCC(OC(C)=O)C1CC(C(C)C)CCC1C (configuration not stated)
Solution: 34

Problem: Please give measured growth inhibition of the following entry: "CC1(C)CC(=O)C(/C=N/c2nc(-c3ccc(Br)cc3)cs2)=C(O)C1"
Solution: 97

Problem: Please give measured growth inhibition of the following entry: "COc1ccc2nc(CCc3ccccc3)ccc2c1"
Solution: 81

Problem: Please give measured growth inhibition of the following entry: "O=C(NCCNCCNC(=O)c1cc(-c2ccccc2)nc2ccccc12)c1cc(-c2ccccc2)nc2ccccc12"
Solution: 40

Problem: Please give measured growth inhibition of the following entry: "C/C(=N/NC(=S)Nc1ccccc1C)c1ccccn1"
Solution: 1

Problem: Please give measured growth inhibition of the following entry: "CN(CCOc1ccc(Cl)cc1)CCOc1ccc(Cl)cc1"
Solution: 99

Problem: Please give measured growth inhibition of the following entry: "N#[N+]c1c([O-])c2ccccc2c2ccccc12"
Solution: 36

Problem: Please give measured growth inhibition of the following entry: O=NC1c2cccc3cccc(c23)C1N=O (configuration not stated)
Solution: 94

Problem: Please give measured growth inhibition of the following entry: "O=c1[nH]c2c([N+](=O)[O-])cccc2c2ccccc12"
Solution: 52

Problem: Please give measured growth inhibition of the following entry: "CCOC(=O)/C(=C\c1cccc(C)c1)C(C)=O"
Solution: 96

Problem: Please give measured growth inhibition of the following entry: "CN(C)CCNCCCNc1c2ccccc2nc2cccc([N+](=O)[O-])c12"
Solution: 98

Problem: Please give measured growth inhibition of the following entry: CC(C)[Si]1(C(C)C)OCC2OC(n3cnc4c(N)ncnc43)C(N)C2O[Si](C(C)C)(C(C)C)O1 (configuration not stated)
Solution: 99

Problem: Please give measured growth inhibition of the following entry: "O=C(/N=N/C(=O)Oc1ccccc1)Oc1ccccc1"
Solution: 97

Problem: Please give measured growth inhibition of the following entry: "CCc1c(Cl)c(C)c(Cl)c(O)c1Cl"
Solution: 98

Problem: Please give measured growth inhibition of the following entry: "CCCCN(CCCC)c1ccc(N=Nc2ccc(S(=O)(=O)O)cc2)cc1"
Solution: 98

Problem: Please give measured growth inhibition of the following entry: "Cc1ccccc1NC(=O)c1c(C)oc2c1C(=O)c1ccccc1C2=O"
Solution: 71

Problem: Please give measured growth inhibition of the following entry: "CNC(=O)OCc1c(COC(=O)NC)c(C)n(-c2ccc(Br)cc2)c1C"
Solution: 23

Values from PubChem BioAssay (NCI)
